Values compiled from paper PMC12864922.

target: TDP-43 (Homo sapiens, UniProt Q13148 1-414); test: RNA Bind-n-Seq with designed 260-mer pool; 25 mM Tris-HCl, 150 mM KCl, 3 mM MgCl2, BSA (printed 500 mg/mL), 20 units/mL SUPERase IN; pH not stated; 500 nM RNA pool, 1 h, 4 C; TDP-43 5, 50, 500 nM; high values mean tight binding; conditions: protein: recombinant; tags: SBP (GST cleaved off with PreScission; pGEX-GST-SBP)
Sequence (Q13148 whole entry): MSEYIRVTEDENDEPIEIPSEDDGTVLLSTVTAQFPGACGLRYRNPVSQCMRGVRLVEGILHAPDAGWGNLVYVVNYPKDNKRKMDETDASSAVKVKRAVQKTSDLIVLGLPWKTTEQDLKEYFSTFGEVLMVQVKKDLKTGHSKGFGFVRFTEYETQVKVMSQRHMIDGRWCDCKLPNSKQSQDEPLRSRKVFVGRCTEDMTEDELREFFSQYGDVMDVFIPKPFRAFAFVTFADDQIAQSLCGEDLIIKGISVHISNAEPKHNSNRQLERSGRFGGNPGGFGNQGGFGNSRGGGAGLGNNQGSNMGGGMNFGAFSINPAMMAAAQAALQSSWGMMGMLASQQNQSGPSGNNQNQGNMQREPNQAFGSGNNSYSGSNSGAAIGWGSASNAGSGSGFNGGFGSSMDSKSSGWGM
The full ranking holds about 9,900 sequences; the median of “r (bound/input frequency ratio)” is about 0.7, and the highest 2% start at about 6.5. For the sample, the highest values were picked, then their nearest neighbours and some sequences at random.
metric-name: binding signal

1) ENSMUSG00000004113.288|Cacna1b (ssRNA) RNA: GGGAGUUCUACAGUCCGACGAUCGCUUCGAUAUCCGCAUGCUAAAAACCCAUGCUCAGGAAGGUGUUCAGUGUGCACAGAUAGCUGGGAGGCCACGAGAGAAAGGUUGCACACAGACAGGCAGGCACUCCUUGGUGUGGUCUCUCUGUUUUGAAACUUCUGAUGACUUCUUGGUGGCUUGUUGUCUUCUACCCCAUGUUUCUCACAGGAUCUGUGUGUGUGUGUGUGUGUGUGUGUGUGUGUGUGUGUGUGUGUGUUAGCAUGUGUGUAUUAGCGUGUGUGAGUGUGUGAGCAUGCACGAGUCCUCUUGCGGUCGCACUAGUGUGGAAUUCUCGGGUGUCAAGG = 7.06 R (bound/input frequency ratio)

From here, focus on the item given below.
For ENSMUSG00000004113.284|Cacna1b (ssRNA) RNA: GGGAGUUCUACAGUCCGACGAUCGCUUCGAUAUCCGCAUGCUAACCUCAUGGCUGCUUUGCAAAGGGAAAACCCAUGCUCAGGAAGGUGUUCAGUGUGCACAGAUAGCUGGGAGGCCACGAGAGAAAGGUUGCACACAGACAGGCAGGCACUCCUUGGUGUGGUCUCUCUGUUUUGAAACUUCUGAUGACUUCUUGGUGGCUUGUUGUCUUCUACCCCAUGUUUCUCACAGGAUCUGUGUGUGUGUGUGUGUGUGUGUGUGUGUGUGUGUGUGUGUGUGUUAGCAUGUGUGUAUUAGCGUGUGCUCUUGCGGUCGCACUAGUGUGGAAUUCUCGGGUGUCAAGG the binder record lists binding signal as 6.3 R (bound/input frequency ratio)
